Tested on: NIH/3T3 cells transfected with the same control vector
Assay: NIH/3T3 mock cell proliferation assay (counter assay, general toxicity)
Type: cell-based
Conditions: Mus musculus, NIH3T3, 72 h, 72-hr incubation, CellTiter Glo, starting with 30 μM; counter assay for general toxicity; read-out: NIH/3T3 MOCK CTG (IC50)
I'd be grateful if you could share measured IC50 for these entries.
The answer is to be given in µM; state only the numeric part.

Using the record for C[C@H](Nc1c(-c2nc3ccc(N4CCOCC4)cc3[nH]2)c(=O)[nH]c2ccccc12)c1ncccn1 [Compound 2] , report its IC50. 15.3

Continue with C[C@@H]1CN(c2ccc3nc(-c4c(N[C@@H](C)c5ccccn5)c5ccccc5[nH]c4=O)[nH]c3c2)C[C@H](C)O1 [Compound 4] 7.69

Continue with CC(Nc1c(-c2nc3cc(C(F)(F)F)c(N4CCOCC4)cc3[nH]2)c(=O)[nH]c2ccccc12)c1ncccn1 (single isomer, unassigned) [Compound 45] 12.7

Continue with CC(Nc1c(-c2nc3ccc(N4CCOCC4)cc3[nH]2)c(=O)[nH]c2ccccc12)c1cscn1 (single isomer, unassigned) [Compound 52a] 1.43

Continue with C[C@H](Nc1c(-c2nc3ccc(N4CCCCC4)cc3[nH]2)c(=O)[nH]c2ccccc12)c1ncccn1 (single isomer, unassigned) [Compound 28a] 7.22

Continue with CC(Nc1c(-c2nc3ccc(N4CCOCC4)cc3[nH]2)c(=O)[nH]c2ccccc12)c1cocn1 (single isomer, unassigned) [Compound 51a] 1.18

Continue with CC(C)C(Nc1c(-c2nc3ccc(N4CCOCC4)cc3[nH]2)c(=O)[nH]c2ccccc12)c1ncccn1 (single isomer, unassigned) [Compound 32a] 2.61

Continue with C[C@@H]1CN(c2ccc3nc(-c4c(N[C@@H](C)c5ncccn5)c5ccccc5[nH]c4=O)[nH]c3c2)CCO1 (single isomer, unassigned) [Compound 40a] 2.48

Continue with COC(=O)C1CN(c2ccc3nc(-c4c(N[C@@H](C)c5ccccn5)c5ccccc5[nH]c4=O)[nH]c3c2)CCO1 (mixture of isomers) [Compound 59] 7.29

Continue with C[C@H](Nc1c(-c2nc3ccc(N4CCC(C(=O)O)CC4)cc3[nH]2)c(=O)[nH]c2ccccc12)c1ccccn1 [Compound 6] 0.795

Continue with CC(Nc1c(-c2nc3cc(F)c(N4CCOCC4)cc3[nH]2)c(=O)[nH]c2ccccc12)c1ncccn1 (single isomer, unassigned) [Compound 27a] 3.88

Continue with C[C@H](Nc1c(-c2nc3ccc(N4CCN(C)CC4)cc3[nH]2)c(=O)[nH]c2cc(F)ccc12)c1ccccn1 [Compound 63] 0.637
